- Tested on: HT29 colon
- protocol-description: NCI-60 one-dose screen, 48 h
- condition-description: 10 µM unless noted
- Description: Growth inhibition of the HT29 human tumor cell line is measured as a screen for anti-cancer activity. Cells are grown in 96 well plates and exposed to the test compound for 48 hours. Compounds are tested at a single concentration, which is 10^-5 M for most compounds. The reported endpoint is percent growth (GI% or GIPRCNT), where numbers from 0 - 100% represent growth inhibition, and numbers from -100% - 0 represent cell death. For example, a value of 40 represents 60% growth inhibition. […]
This is part of a sample that, as a whole, favours compounds with a hit. Of some 83,000 tested, about 20% had one in any assay. Calls of active or inactive are those of the source. Rule for the calls: active = growth percent below 10; inactive = the rest.
Outcomes: T (active), F (inactive)

- compound: "NC(=O)c1c(NC(=O)c2ccccc2)sc2c1CCC(=O)C2"
  assigned-category: "T"
- compound: "O=C(Cn1c(-c2ccc([N+](=O)[O-])cc2)nc2ccccc21)NNC(=O)c1cccnc1"
  assigned-category: "F"
- compound: "O=C1c2cc(Cl)ccc2S(=O)(=O)c2c(NCCCNCCO)nc3ccccc3c21"
  assigned-category: "T"
- compound: "Cc1ccccc1NC(=O)c1sc2nc(C)c(C(=O)/C=C/c3ccccc3)cc2c1N"
  assigned-category: "T"
- compound: "CC(=O)OC[C@]12CCC(C)(C)C[C@H]1[C@@]1(O)[C@H](O)C[C@@H]3[C@@]4(C)CCCNC(C)(C)[C@@H]4CC[C@@]3(C)[C@]1(C)CC2"
  assigned-category: "F"
- compound: "C=C1CC[C@@H]2[C@](C)(COC(C)=O)[C@H](OC(C)=O)CC[C@@]2(C)[C@@H]1CC(Sc1ccccc1)C1=CCOC1=O (some centres undefined)"
  assigned-category: "T"
- compound: "CCc1ccc(C(=O)/C=C/C23c4ccccc4C(c4ccccc42)C2C(=O)NC(=O)C23)cc1 (centres undefined)"
  assigned-category: "T"
- compound: "COc1ccc(N2CCC(=O)NC2=S)cc1"
  assigned-category: "F"
- compound: "CCN(c1ccc(Cl)cc1)c1nc(-c2ccc([N+](=O)[O-])cc2)cs1"
  assigned-category: "F"

---

- System: T-47D breast
- protocol-description: NCI-60 one-dose screen, 48 h (100 = growth as untreated, 0 = no growth, -100 = all killed)
- condition-description: 10 µM unless noted
Compounds without any hit were thinned out: in the full panel of roughly 83,000, 20% have a hit. Activity calls are given as the source filed them. Rule for the calls: active = growth percent below 10; inactive = the rest.
Listed next: entries and their corresponding growth.
metric-name: growth

- molecule: "CCOC(=O)C1=NN(c2ccccc2)C(=O)/C1=C\\N1C(=O)CC(=O)NC1=S"
  metric-name: "growth"
  experimental-result: "85.9% (inactive)"
- molecule: "C=C(C)[C@@H]1CC[C@]2(C)[C@H](CC=C3[C@@H]4[C@H](C)[C@@H](C)CC[C@]4(CO)CC[C@]32C)[C@@]1(C)CCCN"
  metric-name: "growth"
  experimental-result: "-34.1% (active)"
- molecule: "N#CC1=C(c2ccc(Cl)cc2)Nc2c(c(-c3ccc(Cl)cc3)nn2-c2ccccc2)C12C(=O)Nc1ccc(Cl)cc12 (stereo not given)"
  metric-name: "growth"
  experimental-result: "42.3% (inactive)"
- molecule: "COC(=O)c1c2c(c(C)[n+]([O-])c1C)C(=O)C=C(NCc1ccc(Br)cc1)C2=O"
  metric-name: "growth"
  experimental-result: "-42.8% (active)"
- molecule: "Cn1ccnc1C(=O)C(=O)Nc1ccc(CC(=O)Nc2ccccc2)cc1"
  metric-name: "growth"
  experimental-result: "112% (inactive)"

Source: PubChem BioAssay (NCI)
